- Method Summary: Biliary excretion and bile flow after i.v. TFA-IOP (100 umol/kg) or IOP (100 in text, 104 umol/kg in tables) in rats
- Assay Conditions: rat, in vivo, iv, 100 umol/kg, Percentage of dose running total in bile, through period printed 10-0 min (pre-injection)
Counter-ions that a name gives are not always drawn.

Compound | dose excreted at 0 h / %
CCC(Cc1c(I)cc(I)c(NC(=O)C(F)(F)F)c1I)C(=O)O (stereo not shown) [TFA-IOP, N-trifluoroacetyl-iopanoic acid] | 0.31

* * *

Each entry below lists one item and its recorded concentration at 1.5 h value.
- Method Summary: Tissue distribution 90 min after i.v. TFA-IOP (100 umol/kg) or IOP (100 in text, 104 umol/kg in tables) in rats
- Format: in vivo
- Assay Conditions: rat, spleen, iv, 100 umol/kg, i.v., 90 min, liver standard curve used, may be erroneous, read-out: Spleen concentration
Where a name gives a salt, the structure may show the parent alone.
Observation Type: concentration at 1.5 h (µM)

Compound | Observation Type | Unit Info | Data Value
CCC(Cc1c(I)cc(I)c(NC(=O)C(F)(F)F)c1I)C(=O)O (centres unmarked) [TFA-IOP, N-trifluoroacetyl-iopanoic acid] | concentration at 1.5 h | µM | 164
CCC(Cc1c(I)cc(I)c(N)c1I)C(=O)O (centres unmarked) [IOP, iopanoic acid, reference compound] | concentration at 1.5 h | µM | 256
